# solubility kinetic per record follows
assay details: nephelometric (kinetic) solubility determination, phosphate buffer pH 7.4
Assay type: physicochemical
assay setup: aqueous buffer, kinetic from dmso stock, nephelometric, Table 7

{"columns": ["compound", "solubility kinetic"],
 "data": [
  ["CN(C(=O)c1ccc(OCC2CC2)cc1)[C@H]1CCc2cc(CN3CC4CCC3CC4)ccc2C1 [Example 7-03]", "> 286 µg/mL"],
  ["CC[C@H](O)COc1ccc(C(=O)N(C)[C@H]2CCc3cc(CN4CCCC4)ccc3C2)cc1 [Example 6-04]", "> 275 µg/mL"],
  ["COCC1(CNCc2ccc3c(c2)CC[C@H](N(C)C(=O)c2ccc(OCC4CC4)cc2)C3)CC1 [Example 7-22]", "> 288 µg/mL"]
]}

Supply measured solubility kinetic of CCCCOc1ccc(C(=O)N(C)[C@H]2CCc3cc(CNCC4CCOCC4)ccc3C2)cc1 [Example 2-06] in your reply.
203 µg/mL

Supply measured solubility kinetic of CN1CCC[C@@H]1c1ccc2c(c1)CC[C@H](N(C)C(=O)c1ccc(OCC3CC3)cc1)C2 [Example 5-01] in your reply.
> 266 µg/mL

Supply measured solubility kinetic of CCN1CCC[C@@H]1c1ccc2c(c1)CC[C@H](N(C)C(=O)c1ccc(OCC3CC3)cc1)C2 [Example 5-02] in your reply.
> 273 µg/mL

Supply measured solubility kinetic of CN1CCCC1c1ccc2c(c1)CC[C@H](N(C)C(=O)c1ccc(OCC3CC3)cn1)C2 (stereo partly shown) [Example 5-10] in your reply.
13 µg/mL

Supply measured solubility kinetic of CN(C(=O)c1ccc(OCC2CC2)cc1)[C@H]1CCc2cc(CNCC3(C)COC3)ccc2C1 [Example 1-05] in your reply.
> 281 µg/mL

Supply measured solubility kinetic of COC1CCN(Cc2ccc3c(c2)CC[C@H](N(C)C(=O)c2ccc(OCC4CC4)cc2)C3)CC1 [Example 7-05] in your reply.
> 288 µg/mL

Supply measured solubility kinetic of CN(C(=O)c1ccc(OCC2CC2)cc1)[C@H]1CCc2cc(CNC[C@H]3CCCO3)ccc2C1 [Example 1-03] in your reply.
> 281 µg/mL

Supply measured solubility kinetic of CN(C(=O)c1ccc(OCC2CC2)cc1)[C@H]1CCc2cc(CN3CCCCCC3)ccc2C1 [Example 7-15] in your reply.
> 280 µg/mL

FYI, the data here is from patent US8841290B2.
